test: NCI Yeast Anticancer Drug Screen. Data for the mec2-1 strain (AID 157); settings: S. cerevisiae mec2-1 strain, at 50.0 µM
About 79,000 compounds went through this panel and 15% of them were active in at least one assay; those are over-represented in the sample as a whole. Activity calls are given as the source filed them. Cut-off read from the data, not from the text of the source: active = growth inhibition above about 70%; inactive = the rest.
Outcome codes: Y = active, N = inactive

| Molecule | Assigned label |
| --- | --- |
| COc1cc(C=Nc2cc[c]([Hg][O]C(C)=O)cc2)ccc1O | Y |
| Nc1nc(N)c(-c2ccc(Cl)c(Cl)c2)c(CCc2ccc(CNC(=O)c3ccc(S(=O)(=O)F)cc3)cc2)n1 | Y |
| C[CH2][Sn]([CH2]C)([CH2]C)[O]C(=O)CO | Y |
| CCC1(O)C(=O)OCc2c1cc1n(c2=O)Cc2cc3cc([N+](=O)[O-])ccc3nc2-1 (centres undefined) | N |
| OC(c1ccc(Cl)cc1)C(Cl)(Cl)Cl (centres undefined) | Y |
| COC(=O)C1C2c3ccccc3C(c3ccccc32)C1C(=O)OC (centres undefined) | N |
| CCC1CC2CCC(O2)C(C)C(=O)OC(C)CC2CCC(O2)C(C)C(=O)OC(CC)CC2CCC(O2)C(C)C(=O)OC(C)CC2CCC(O2)C(C)C(=O)O1 (centres undefined) | Y |
| CCC(C)N1CN(c2ccccc2)C2(CCN(CC3COc4ccccc4O3)CC2)C1=O (centres undefined) | N |
| CCCCC1CCCCCCc2[nH]c(/C=C3\N=C(c4ccc[nH]4)C=C3OC)cc21 (centres undefined) | Y |
| Cc1cc(N(CCCl)CCCl)ccc1C=Nc1ccc(-c2csc(COc3ccccc3)n2)c(Cl)c1 | Y |
| COc1c(O)c2c(c3cc(C(=O)N4CCc5c4c(O)c(OC)c4[nH]c(C(=O)N6CC7CC78C6=CC(=O)c6[nH]cc(C)c68)cc54)[nH]c13)CCN2C(N)=O (centres undefined) | Y |
| CCCN1CN(c2ccccc2)C2(CCN(CCCC(=O)c3ccc(F)cc3)CC2)C1=O | N |
| CCOP(=S)(S)OCC.[Pd] | N |
| COP(=S)(OC)N(C)C(=O)Oc1cccc2ccccc12 | N |
| COc1cc(C(=O)CCN(CCCl)CCCl)cc(OC)c1OC | Y |
| O=[N+]([O-])c1ccc(C=Cc2ccc(C(F)(F)F)cc2)cc1.[C-]#[O+].[C-]#[O+].[C-]#[O+].[Cr] | N |
| CCS(=O)(=O)[O][Sn]([CH2]C)([CH2]C)[O]S(=O)(=O)CC | Y |
| c1ccc2c(c1)CCc1c-2[nH]c2ccccc12 | N |
| CO[C@H](/C(C)=C/C=C/C(C)=C/c1coc(C)n1)[C@H](C)[C@H]1C[C@@H](O)[C@@]2(C)O[C@H]2/C=C/[C@@H](C)[C@@H]2C[C@@H](CC(=O)O2)C[C@H]2O[C@@H]2C(=O)O1 | N |

====

assay: NCI Yeast Anticancer Drug Screen. Data for the bub3 strain (AID 167); conditions: S. cerevisiae bub3 mutant strain, at 33.0 µM, hits give high values
This is part of a sample that, as a whole, favours compounds with a hit. Of some 79,000 tested, about 15% had one in any assay.
The entries below come with measured growth inhibition values attached.
Experimental endpoint: growth inhibition (%)

| Molecule | Experimental result |
| --- | --- |
| CCN(CC)CCBr | -6 |
| CCCN(CCC)c1c([N+](=O)[O-])cc(S(N)(=O)=O)cc1[N+](=O)[O-] | 32 |
| CC1CN=C(Nc2ccccc2)S1 (configuration not stated) | -25 |
| CN(N=O)C(=O)NNC(=O)N(C)N=O | 15 |
| O=C(O)C1C2C=CC(C2)C1c1ccccc1 (configuration not stated) | 73 |
| O=C(O)C1C2c3ccccc3C(c3ccccc32)C1C(=O)O (configuration not stated) | -2 |
| [N-]=[N+]=C1C(Cl)=C(Cl)C(Cl)=C1Cl | 98 |
| N#Cc1cc(N(CCCl)CCCl)c([N+](=O)[O-])cc1[N+](=O)[O-] | 31 |
| Cc1cccc(NC(=O)CBr)c1 | 98 |
| COc1cccc2c1C(=O)c1c(O)c3c(c(O)c1C2=O)C[C@@](O)(C(C)=O)C[C@@H]3OC1CC(N)C(OC2CC(O)C(O)C(C)O2)C(C)O1 (some centres not stated) | -23 |
| Cc1cc[n+](C2=C(Nc3cccc(C(F)(F)F)c3)C(=O)c3ccccc3C2=O)cc1 | 13 |
| O=C(O)C1C2CCC(C2)C1c1ccccc1 (configuration not stated) | 77 |
